test system: VDR homodimer (NR concentration 270 nM); assay: PBM binding z-score (relative to random genomic background probes); higher = stronger binding; sequences stand for … in GC…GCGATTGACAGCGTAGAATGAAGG
MEASURED ENDPOINT: PBM binding z-score

RESIDUES: GGAATGAGGGCAAAGTTGATAGCATCTGTCGACG
EXPERIMENTAL RESULT: 1.75
--
RESIDUES: AGAATGAGGTTATTAAGACCAGGGAATTGCGGTC
EXPERIMENTAL RESULT: 0.915
--
RESIDUES: TCGAGTAGGTTACCAATGGGGCATACAGCTTTCT
EXPERIMENTAL RESULT: -0.212
--
RESIDUES: CCTACTGGGCCAGCAGGTCATTGATATCAACGTT
EXPERIMENTAL RESULT: 0.812
--
RESIDUES: CGAACTGGGTCAAGGACAGTGAATCTCCGCACGC
EXPERIMENTAL RESULT: 0.325
--
RESIDUES: ACAGACAGGTGATGAAGGTAACTCAAGCTATCAT
EXPERIMENTAL RESULT: -0.318
--
RESIDUES: CCTCGGAGGACAGAAGCTCAGAGCTGTCCGCTTT
EXPERIMENTAL RESULT: -0.819
--
RESIDUES: CGTCCAAGGTCAAATGTCAGTGAAGAGATGACGG
EXPERIMENTAL RESULT: 2.75
--
RESIDUES: TCATATAGGTAAAGGGGAAAGTCGAACGATATGA
EXPERIMENTAL RESULT: -0.173
--
RESIDUES: CATAGCAGGCCAGGGTCACTCAAGCATTTCGCTT
EXPERIMENTAL RESULT: 1.81
--
RESIDUES: GTACCAAGGTGAATAGATCGTTGATGAGTAGGCG
EXPERIMENTAL RESULT: -0.106
--
RESIDUES: TCTTGTAGATCAAAGGTTAAGAATGCCGAAGCCT
EXPERIMENTAL RESULT: -0.101
--
RESIDUES: CCTAGCAGGCCATGGTCACTCAAGCATTTCGCTT
EXPERIMENTAL RESULT: -0.529
--
RESIDUES: ACTATTAGTTGACGTAGGGCAACCGATACGACGC
EXPERIMENTAL RESULT: 0.159
--
RESIDUES: ATCTCTAGTTAACCAAGTTCAGTGAATGCCGAAC
EXPERIMENTAL RESULT: 3.16
--
RESIDUES: CGGCCAAGGTCAATGCTAGGTCAGTGAAAGCATT
EXPERIMENTAL RESULT: 2.22
--
RESIDUES: CTCGAAAGGTCGTGCTCAGGTGAGAATACCAAAC
EXPERIMENTAL RESULT: 0.913
--
RESIDUES: CTACCAAGGTGAACAAGGTGGTTGATTACTATTC
EXPERIMENTAL RESULT: -0.122
--
RESIDUES: ACTAGCAGGCCAGGGGTCACTCAAGATTAGTCCG
EXPERIMENTAL RESULT: 2.8
--
RESIDUES: CTAACTAGGTCATCCAGGACAGTGAATACATTGA
EXPERIMENTAL RESULT: 2.32
--
RESIDUES: CAAACTGGGTCAAGGTCAAAGTCGGTTTGTGCCA
EXPERIMENTAL RESULT: 4.24
--
RESIDUES: ATGTCTAGGTAACCAAGTTCAGTGAATGCCGAAC
EXPERIMENTAL RESULT: 2.08
--
RESIDUES: CCTTACGGTTCACTCCAGGTTATAGCATCGGAGT
EXPERIMENTAL RESULT: 3.65
--
RESIDUES: TCTCGGAGGACACGAAAGTCAGAGCTTTCCAGAG
EXPERIMENTAL RESULT: -0.621
--
RESIDUES: TCATATAGGTTAATGCTAGGTGAAAGTCCGATCT
EXPERIMENTAL RESULT: 0.748
--
RESIDUES: ATCTGTAGGTTAGCTGGGGTCATTCAGACTAGGC
EXPERIMENTAL RESULT: 5.38
--
RESIDUES: CCAGCCAGGTGAGAAGGTAACTCAGCCTCGATTA
EXPERIMENTAL RESULT: -0.441
--
RESIDUES: ATCTCTAGGTAAAAGTTAAGTGAATCCCGAGGAT
EXPERIMENTAL RESULT: 0.265
--
RESIDUES: GGAACGACGGCAAAGTTGATAGCATCTGTCGACG
EXPERIMENTAL RESULT: -0.637
--
RESIDUES: GCAGACAGGTGAAACGCAGGTAACTCCGGGTGGC
EXPERIMENTAL RESULT: -0.791
--
RESIDUES: ATCTCTAGGTAACAAGTTCACTGAAAGAGAGGAC
EXPERIMENTAL RESULT: 3.99
--
RESIDUES: ATACCAAGATGATCGTGAGGTCGTTGATACTAAC
EXPERIMENTAL RESULT: 2.77
--
RESIDUES: CTTACAGGGTCAGCTAGGCCAGAGTAGGGACGGC
EXPERIMENTAL RESULT: 0.875
